Recorded protein stability index by entry
# Tested on: Saccharomyces cerevisiae
# ASSAY OVERVIEW: protein stability index of tFT-peptide fusion (C-terminal peptide) (PSI (0-1 scale)); higher = more stable (slower turnover);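 note: PSI is a weighted mean of sequencing reads over stability bins, variants kept only with over 10 reads, mCherry proximal and sfGFP distal, peptide attached via GGGS linker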
# CONDITION PARAMETERS: genetic background: wild type; temperature: 30 C

Solved entries (count: 3):
LGGGCVRCVFMW :: 0.637
RTDRIVGGNERV :: 0.661
ICPWLLPPSCRS :: 0.738

Turning to the following sequence.
Value sought: protein stability index, system Saccharomyces cerevisiae, item "KTKSKNGNQRAT" . Result: 0.711

---

# Test system: Saccharomyces cerevisiae
# ASSAY OVERVIEW: protein stability index of tFT-peptide fusion (C-terminal peptide) (PSI (0-1 scale)); higher = more stable (slower turnover)
# CONDITION PARAMETERS: genetic background: cdc34-1; temperature: 37 C
Measured protein stability index determines class: lower level = under 0.3, middle level = from 0.3 up to 0.5, upper level = 0.5 and over

## Task Category of "VVRVSFSFCLSC" , please.
## Result middle level

## Task Category of "IPLGLTLVQCLY" , please.
## Result upper level

## Task Category of "RVCCLSFFFVFL" , please.
## Result middle level
